Reported values of kcat/Km for individual entries
- Test system: Mycobacterium tuberculosis
- assay: Substrate activity at Mycobacterium tuberculosis Ddn expressed in Escherichia coli BL21 (DE3) assessed as oxidation of F420H2 by measuring Kcat/Km by spectrophotometric analysis
experimentalEndpoint: kcat/Km (M⁻¹ s⁻¹)

>  <smilesStr>
O=[N+]([O-])c1cn2c(n1)OC[C@@H](OCc1ccc(OC(F)(F)F)cc1)C2

>  <tgt>
Mycobacterium tuberculosis

>  <measurement>
1260

$$$$
>  <smilesStr>
O=c1c2nc([N+](=O)[O-])cn2ccn1Cc1ccc(N2CCCCC2)cc1

>  <tgt>
Mycobacterium tuberculosis

>  <measurement>
773

$$$$
>  <smilesStr>
Cc1c(C)n2cc([N+](=O)[O-])nc2c(=O)n1Cc1ccc(OC(F)(F)F)cc1

>  <tgt>
Mycobacterium tuberculosis

>  <measurement>
244

$$$$
>  <smilesStr>
Cc1ccc(Cn2ccn3cc([N+](=O)[O-])nc3c2=O)cc1

>  <tgt>
Mycobacterium tuberculosis

>  <measurement>
1710

$$$$
>  <smilesStr>
O=c1[nH]c(-c2ccccc2)cn2cc([N+](=O)[O-])nc12

>  <tgt>
Mycobacterium tuberculosis

>  <measurement>
8.1

$$$$
>  <smilesStr>
O=C(NCc1ccc(OC(F)(F)F)cc1)c1ncc([N+](=O)[O-])[nH]1

>  <tgt>
Mycobacterium tuberculosis

>  <measurement>
6.9

$$$$
>  <smilesStr>
O=c1c2nc([N+](=O)[O-])cn2ccn1Cc1cncc(-c2cccc(OC(F)(F)F)c2)c1

>  <tgt>
Mycobacterium tuberculosis

>  <measurement>
3190

$$$$
